Assay Notes: chemical genetic growth profiling, strain panel (AID 1159580);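 further: tested at 20 µM; growth read once vehicle control cultures reached saturation at 30 °C; 1 = growth at the plate median or of vehicle wells; lower values mean less growth of the strain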
Condition Set: S. cerevisiae deletion strains, growth OD, locus YLR027C, strain aat2, stronger effect = lower value
About 2,000 (36%) of roughly 5,500 compounds were called active. Inconclusive results (about 18%) are left out. The list shows a part of the results.
Readout Type: normalized growth
When you answer, write just the number.

Use these answered entries as a reference point.
Request: Would you kindly share the measured normalized growth for NC(=O)CC[C@@H](N)C(=O)O ?
Response: 1.02

Request: Same question, CC(=O)O[C@H]1C[C@@H](O)C(C)(C)C2C[C@@H](OC(C)=O)[C@]3(C)C(CC[C@@]4(C)[C@H](c5ccoc5)OC(=O)C5OC543)[C@]21C (some centres not stated) this time
Response: 1.01

Request: Same question, CC(=O)O[C@@H]1CC2C(C)(C)CCC(=O)[C@]2(C)C2CC[C@@]3(C)[C@H](c4ccoc4)OC(=O)C4OC43[C@@]21C (some centres not stated) this time
Response: 1.01

More entries:
Request: Would you kindly share the measured normalized growth for CN1CCOC(c2ccccc2)c2ccccc2C1 (configuration not stated) ?
Response: 1

Request: Same question, CC(C)c1ccc2c(c1O)CC[C@H]1C3=C(CC[C@]21C)C(=O)OC3 this time
Response: 0.964

Request: Same question, CC(=O)O[C@@H]1CC2C(C)(C)C(=O)CC[C@]2(C)C2CC[C@@]3(C)[C@H](c4ccoc4)OC(=O)C4OC43[C@@]21C (some centres not stated) this time
Response: 1

Request: Same question, O=C1CN2Cc3c(ccc(Cl)c3Cl)N=C2N1 this time
Response: 0.991
